system: oat, wild (wild oat, Avena fatua); experiment: Test A postemergence application, visual injury rating 0-100; assay type: in vivo; conditions: 62 g ai/ha, postemergence, 10 days, 0 = no effect, 100 = complete control
MEASUREMENT TYPE: Oat, Wild plant response rating (0-100)

[
  {
    "COMPOUND": "CC1(C(=O)NC2CC=C(C(=O)NS(=O)(=O)C(C)(C)C)C2)CN(c2cc(F)cc(F)c2)C(=O)O1 (racemic) [Compound 91]",
    "Oat, Wild plant response rating (0-100)": 20
  }
]

Fill in the recorded Oat, Wild plant response rating (0-100) for this compound, with oat, wild (wild oat, Avena fatua) as test system: COC(=O)C1=CCC(NC(=O)C2(C)CN(c3cc(Cl)c(F)c(Cl)c3)C(=O)O2)C1 (centres unmarked) [Compound 129]
20

Give the reported Oat, Wild plant response rating (0-100) for CC1(C(=O)NC2C=CC(C(=O)O)C2)CN(c2cc(Cl)c(F)c(Cl)c2)C(=O)O1 (centres unmarked) [Compound 124] (system: oat, wild (wild oat, Avena fatua)).
90

Item: COC(=O)C1C=CC(NC(=O)C2(C)CN(c3cccc(OC(F)(F)F)c3)C(=O)O2)C1 (mixture of isomers) [Compound 101] Test system: oat, wild (wild oat, Avena fatua) Read-out: Oat, Wild plant response rating (0-100) Value: ?
90

// lookup Oat, Wild plant response rating (0-100) | system=oat, wild (wild oat, Avena fatua) | key= CCOC(=O)C1=CCC(NC(=O)C2(C)CN(c3cc(F)cc(F)c3)C(=O)O2)C1 (centres unmarked) [Compound 111]
0
